Molecular target: pendrin (Homo sapiens, UniProt O43511)
Construct: human wild-type pendrin expressed in human alveolar epithelial cells (hAEC)
Sequence (O43511 whole entry): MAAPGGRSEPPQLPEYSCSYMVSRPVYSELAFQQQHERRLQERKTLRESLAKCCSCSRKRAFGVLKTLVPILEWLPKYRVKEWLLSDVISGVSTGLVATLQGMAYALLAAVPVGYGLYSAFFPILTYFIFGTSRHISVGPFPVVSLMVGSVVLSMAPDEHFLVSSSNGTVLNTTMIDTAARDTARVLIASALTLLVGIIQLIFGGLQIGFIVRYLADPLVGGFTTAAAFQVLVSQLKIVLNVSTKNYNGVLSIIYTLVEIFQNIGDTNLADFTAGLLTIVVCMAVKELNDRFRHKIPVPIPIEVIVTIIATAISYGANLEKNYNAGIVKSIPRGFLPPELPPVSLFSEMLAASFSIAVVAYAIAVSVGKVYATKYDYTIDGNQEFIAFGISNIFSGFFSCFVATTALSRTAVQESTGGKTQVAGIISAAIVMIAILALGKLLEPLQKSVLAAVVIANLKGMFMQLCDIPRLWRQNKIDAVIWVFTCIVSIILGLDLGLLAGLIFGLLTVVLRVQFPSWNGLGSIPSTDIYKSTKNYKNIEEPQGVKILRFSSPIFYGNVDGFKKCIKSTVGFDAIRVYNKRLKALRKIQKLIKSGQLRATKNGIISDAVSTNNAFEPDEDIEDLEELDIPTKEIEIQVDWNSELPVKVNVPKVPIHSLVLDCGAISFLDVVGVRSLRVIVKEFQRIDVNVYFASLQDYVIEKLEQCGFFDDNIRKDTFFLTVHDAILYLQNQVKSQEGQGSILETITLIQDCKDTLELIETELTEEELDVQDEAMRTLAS
Test: Cl-/SCN- exchange activity assay in pendrin-transfected human alveolar epithelial cells, dose-response
READOUT_KIND: pIC50
Notebook: values listed as pIC50 are -log10 of the concentration (mol/L).

Lab note: CC(C)(C)c1ccc(C2=N/C(=C/c3cccs3)C(=O)O2)cc1 gave pIC50 of 5.33
